Measured T/C [%], percentage increase of the proton secretion compared to untreated controls accompanies every entry in the list below.
System: HGT-1 cells
Assay: Intracellular pH / proton secretion of HGT-1 cell cultures (SNARF-1-AM dye)
Assay type: cell-based, human
Conditions: 0.03 mM substance of group (a) in combination with 0.3 mM theobromine, 10 minutes
Experimental: Human parietal cells, also known as human gastric tumor cell line (HGT-1), are used as cell model. These were provided by Dr. C. Laboisse (Laboratory of Pathological Anatomy, Nantes, France). […] For the measurement of the intracellular proton concentration, the cells are treated with trypsin/EDTA, the viability determined by means of trypan blue staining and 100 000 cells/well seeded in black 96-well plates. […]
Reported Endpoint: T/C [%], percentage increase of the proton secretion compared to untreated controls (%)

[[record]]
molecule = "COc1cc(C2CC(=O)c3c(O)cc(O)cc3O2)ccc1O (stereo not shown)"
observed_measurement = 13.79

[[record]]
molecule = "O=C1CC(c2ccc(O)c(O)c2)Oc2cc(O)cc(O)c21 (stereo not shown)"
observed_measurement = 23.95

[[record]]
molecule = "COc1cc(C[C@H]2COC(=O)[C@@H]2Cc2ccc(O)c(OC)c2)ccc1O"
observed_measurement = 23.41

[[record]]
molecule = "COc1cc(C[C@H]2CO[C@H](c3ccc(O)c(OC)c3)[C@H]2CO)ccc1O"
observed_measurement = 31.73

